system_under_test: T1, human CD33 on primary human dendritic cells (human, UniProt P20138 18-364)
T1 construct: Endogenous CD33 of monocyte-derived dendritic cells from healthy donors; also called Siglec-3
experimental_protocol: flow cytometry, primary human dendritic cells, 2 ug/mL
property: binding relative to the parental antibodies

# binder, val
rows = [
    ("anti-CD33 antibody 6C7H30 (antibody, V domains shown, VH/VL only) VH: EVQLVESGGGLVQPGGSLRLSCAGSGFTFSNYWMNWVRQAPGKGLEWVAEIRLKSNNYVTNYAASVKGRFTISRDDSKNSVYLQMNSLKTEDTGVYYCTRAGYYVPFAYWGQGTLVTVSS VL: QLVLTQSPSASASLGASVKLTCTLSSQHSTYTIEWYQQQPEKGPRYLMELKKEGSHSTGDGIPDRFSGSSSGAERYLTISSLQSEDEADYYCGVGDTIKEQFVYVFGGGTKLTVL", "< 60%"),
    ("anti-CD33 antibody 6C7H27 (antibody, V domains shown, VH/VL only) VH: EVQLVESGGGLVQPGGSLRLSCAGSGFTFSDYTMNWVRQAPGKGLEWVAEIRLKSNNYVTNYAASVKGRFTISRDDSKNSVYLQMNSLKTEDTGVYYCTRAGYYVPFAYWGQGTLVTVSS VL: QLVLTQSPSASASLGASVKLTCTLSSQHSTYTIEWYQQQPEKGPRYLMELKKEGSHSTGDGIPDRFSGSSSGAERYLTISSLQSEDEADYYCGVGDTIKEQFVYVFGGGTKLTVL", "< 60%"),
    ("anti-CD33 antibody 6C7H19 (antibody, V domains shown, VH/VL only) VH: EVQLVESGGGLVQPGGSLRLSCAGSGFTFSNYRMNWVRQAPGKGLEWVAEIRLKSNNYVTNYAASVKGRFTISRDDSKNSVYLQMNSLKTEDTGVYYCTRAGYYVPFAYWGQGTLVTVSS VL: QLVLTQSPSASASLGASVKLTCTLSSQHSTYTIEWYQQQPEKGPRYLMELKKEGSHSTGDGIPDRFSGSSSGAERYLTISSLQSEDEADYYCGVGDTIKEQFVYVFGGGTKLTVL", "< 60%"),
    ("anti-CD33 antibody 6C7H22 (antibody, V domains shown, VH/VL only) VH: EVQLVESGGGLVQPGGSLRLSCAGSGFTFSNYTMNWVRQAPGKGLEWVAEIRLKSNNYVTNYAASVKGRFTISRDDSKNSVYLQMNSLKTEDTGVYYCTRAGYYVPFAYWGQGTLVTVSS VL: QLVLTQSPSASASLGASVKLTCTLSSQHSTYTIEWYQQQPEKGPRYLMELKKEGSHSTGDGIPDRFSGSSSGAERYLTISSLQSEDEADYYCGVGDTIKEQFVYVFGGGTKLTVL", "< 60%"),
    ("anti-CD33 antibody 6C7H13 (antibody, V domains shown, VH/VL only) VH: EVQLVESGGGLVQPGGSLRLSCAGSGFTFSNYFMNWVRQAPGKGLEWVAEIRLKSNNYVTNYAASVKGRFTISRDDSKNSVYLQMNSLKTEDTGVYYCTRAGYYVPFAYWGQGTLVTVSS VL: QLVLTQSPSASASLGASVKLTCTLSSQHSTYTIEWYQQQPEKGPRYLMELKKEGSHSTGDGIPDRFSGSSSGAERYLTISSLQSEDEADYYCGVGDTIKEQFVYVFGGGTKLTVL", "< 60%"),
]
